Provenance of the data: paper PMC8694169

# TARGET: HLA-A*24:02 (Homo sapiens, UniProt P04439, D101N/D140Y/D185E/E176V/E190D/F33S/G103R/G107R/I119L/I121M/I306V/K335N/L105A/L180Q/L300P/N151K/N90K/Q86E/Q94H/R106L/R138H/R89G/T104I/T345S/V100E/W191G/Y123F)
# ASSAY PROCEDURE: cell-based
# Assay type: binding
# CONDITION NOTES: […], mean ± SD, triplicate, repeated twice, ND = not detected, read-out: BL50 (half-maximal binding level, peptide concentration that yields 50% relative binding)
Where no end group is shown, it is not given here.
Measured log10(EC50), listed per entry for reference.
Annotation: log10 of EC50, µM basis.

Answered cases to consult:
>  <SEQUENCE DATA>
YYKKDNSYF [pp1a-1899]

>  <log10(EC50)>
-0.52

$$$$
>  <SEQUENCE DATA>
YYTSNPTTF [pp1a-1536]

>  <log10(EC50)>
-1.30

$$$$
>  <SEQUENCE DATA>
TFNGECPNF [pp1a-265]

>  <log10(EC50)>
0.23

$$$$

Now consider a different sequence.
Prompt: Tell us which log10(EC50) value is on record for WFLLLSVCL [pp1a-2232]
Completion: 2.45

* * *

Listed next: entries and their corresponding pEC50.
# TARGET: HLA-A*24:02 (Homo sapiens, UniProt P04439, D101N/D140Y/D185E/E176V/E190D/F33S/G103R/G107R/I119L/I121M/I306V/K335N/L105A/L180Q/L300P/N151K/N90K/Q86E/Q94H/R106L/R138H/R89G/T104I/T345S/V100E/W191G/Y123F)
# ASSAY PROCEDURE: cell-based
# Format: binding
# CONDITION NOTES: […], mean ± SD, triplicate, repeated twice, ND = not detected, read-out: BL50 (half-maximal binding level, peptide concentration that yields 50% relative binding)
Where no end group is shown, it is not given here.
Quick note: pEC50 values are minus log10 of concentrations in mol/L.

>  <SEQUENCE DATA>
VYSVIYLYL [pp1a-3104]

>  <ASSAY VALUE>
6.30

$$$$
>  <SEQUENCE DATA>
PFWITIAYI [pp1a-3137]

>  <ASSAY VALUE>
3.99

$$$$
>  <SEQUENCE DATA>
FYLTNDVSF [pp1a-3114]

>  <ASSAY VALUE>
8.00

$$$$
>  <SEQUENCE DATA>
AFLPFAMGI [pp1a-3610]

>  <ASSAY VALUE>
3.74

$$$$

Prompt: Note pEC50 for the sequence shown: YYHTTDPSF [pp1a-1634]
Completion: 7.40

Prompt: Given YYRSLPGVF [pp1a-3010] , respond with its pEC50.
Completion: 3.91

Prompt: Give the reported value of pEC50 for this record: FYWFFSNYL [pp1a-3153]
Completion: 5.41

* * *

# TARGET: HLA-A*24:02 (Homo sapiens, UniProt P04439, D101N/D140Y/D185E/E176V/E190D/F33S/G103R/G107R/I119L/I121M/I306V/K335N/L105A/L180Q/L300P/N151K/N90K/Q86E/Q94H/R106L/R138H/R89G/T104I/T345S/V100E/W191G/Y123F)
# ASSAY PROCEDURE: cell-based
# Assay type: binding
# CONDITION NOTES: SD
Where no end group is shown, it is not given here.
EXPERIMENTAL READOUT: EC50 (µM)
Unit µM implied. Number only.

Prompt: Kindly indicate its recorded EC50. Item: KYLYFIKGL [pp1a-4226]
Completion: 109

Prompt: Dear colleague, please send me the reported EC50 for DYLVSTQEF [pp1a-3812] when you can.
Completion: 0.9
